- Test system: UO-31 renal
- TEST_METHOD_NOTES: NCI tumour cell line growth inhibition, 48 h; in the data active means GI50 below about 0.43 µM; inactive means the rest
Answer with one of the outcomes given here: Y for active, N for inactive

Query: Hi, do you know how C/C1=C/C(=O)O[C@@H]2C[C@@H](CC[C@H](C)/C=C\C=C\CC1)O[C@@](O)([C@@H]1CSC(=O)N1CO)C2 came out in this test?
Response: Y

Query: Also check O=C1/C=C/[C@@H](O)[C@@H]2C[C@@H](O)C[C@H]2/C=C/CCC[C@H](CCc2ccc(C(F)(F)F)cc2)O1
Response: Y

Query: Same read-out for COc1cccc(Cn2c(-c3nonc3N)nc3ccccc32)c1 ?
Response: N
